Form field: pKd (one value per entry).
- target.or.test.system: T1, cynomolgus monkey B7-H7 (soluble analyte in SPR) (cynomolgus monkey)
- T1 sequence: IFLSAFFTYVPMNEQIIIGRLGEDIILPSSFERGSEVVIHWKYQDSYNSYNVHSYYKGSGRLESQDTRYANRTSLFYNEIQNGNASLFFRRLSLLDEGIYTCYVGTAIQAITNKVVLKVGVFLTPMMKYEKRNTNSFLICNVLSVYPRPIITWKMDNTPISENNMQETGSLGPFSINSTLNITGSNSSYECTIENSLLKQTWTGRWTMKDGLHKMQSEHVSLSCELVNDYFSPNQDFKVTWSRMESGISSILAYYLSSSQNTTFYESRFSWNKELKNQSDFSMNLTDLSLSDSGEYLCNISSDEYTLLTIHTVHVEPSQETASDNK
- experimental.details: SPR (Biacore), antibody captured by anti-Fc on CM5 chip, B7-H7 injected, 37 C
Here pKd is given on a logarithmic scale as minus log10 of the concentration in mol/L.

anti-B7-H7 antibody 16D5 (antibody, V domains shown) VH: QVQLQQSAAELARPGASVKMSCKASGYTFTTYTMHWVKQRPGQGLEWIGYINPSRGYSDYSQKFQGKSTLTTDKSSNTAYIQLTSLTSEDSAVYFCARGGYDFDYWGQGTTLTVSS VL: DIVMTQSHKFMSTSVGDRVSITCKASQDVGTAVAWYQQKPGQSPKLLLYWASTRHTGVPDRFTGSGSGTDYTLTISSVQAEDLALYHCQQHFITPYTFGGGTKLEIK | 8.16
anti-B7-H7 antibody 1D3 (antibody, V domains shown) VH: EVQLQQSGPELEKPGASVKISCKASGYSFTGYNMNWVKESNGRSLEWIGNIDPYSGGSTYNQKFKGKATMTVDKSSSTAYMQLKSLTSEDSAVYYCARSVYDAPWLAHWGQGTLVTVSA VL: DIQMTQSPASLSASVGETVTITCRASENIYIYLAWYQQKQGKSPQLLVYNAKTLAEGVPSRFSGSGSGTQFSLKINRLQPEDFGNYYCQHHYGTPPTFGGGTKLEIK | 8.49

Exercise: I have this binder here, anti-B7-H7 antibody 2D7 (antibody, V domains shown) VH: EVQLQQSGPELVKPGASVKISCKTSGYTFTEYTMHWVKQSHGKSLEWIGGINPNNYGAPYNQKFKGKATLTVDKSSNTAYMELRSLTSEDSAIYYCASGGYYFDYWGQGTTLTVSS VL: DIVMTQSHKFMSTSFGDRVSITCKASQDVGTAVAWYQQKLGQSPKLLISWAFTRHTGVPDRFTGSGSGTDYTLTISSLQAEDLALYYCQQHYDTPFTFGSGTKLEIK , and I need its recorded pKd.
Solution: 9.22

Provenance of the data: patent US20210198366A1
